Test system: PPARg:RXRa (NR concentration 180 nM, RXRa partner concentration 90 nM)
method-notes: PBM binding z-score (relative to random genomic background probes); higher = stronger binding; sequences stand for … in GC…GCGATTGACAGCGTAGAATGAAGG
Reported PBM binding z-score values for the following sequences.
result-type: PBM binding z-score

1. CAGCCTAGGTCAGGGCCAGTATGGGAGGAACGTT :: 0.648
2. CGAACTAGGTCAAGGGCAGTGAATCTCCGCACGC :: 8.03
3. TGTTAAAGTTCAAAGGTAACGTAAGTATCCACAC :: 7.2

* * *

Tested on: RXRa DBDmut IVT, anti-RXR (DBD mutation: RXRa K156A/R161A, NR concentration 90 nM)
method-notes: PBM binding z-score (relative to random genomic background probes); higher = stronger binding; sequences stand for … in GC…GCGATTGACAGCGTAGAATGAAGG
Given measured PBM binding z-score, output YES if it is greater than or equal to 1 and NO if not.

1. GCAGCCAGGTGAAACGCAGGTAACTCAGGGTGGC :: NO
2. GCTTGTAGATCAAGGTTTAGAAAGACTAAGCTAA :: NO
3. ATATGTACGTTAGCTGGGGTCATTCAGACTAGGC :: YES
4. TGTCAAAGTTCAAAGGTACCGTAAGTATCCACAC :: YES
5. ATACCAAGGTGATCGTGAGGTCATTGATACTAAC :: YES
6. GTACCAAGGTGAATAGGTCGTTGAAGAGTAGGCG :: NO
7. AACACAGGGTCACTAGGCCAGAGTAGGTACGAAT :: YES
8. GGAACGAGGGCTAAGTTGATAGCATCTGTCGACG :: NO
9. GCTGCTAGGTCAGGTTGGTCAGCTATCGGGTACG :: NO
10. CCGGCTGGGGCAAAGGTTACCATACTCAGTACGA :: NO
11. CAAACTAGGACAAGGTCAAAGTCGGTTTGTGCCA :: YES
12. TCTATCAGTTGAAGGGCAACCGACGAGTCCGTTT :: YES
13. AATACCGGGTCATCGTAGGCCAGAGTACGCACAG :: YES
14. ATCGAAAGGTCGTGTGGTGAGTATACAGAAAGGC :: YES
15. TAGCCTAGGTCATGAGGGCCAGTATAGTGTCGGC :: NO
16. TAGCCTAGGTCATTCGGGGGCCAGTATAGAAAGC :: YES
17. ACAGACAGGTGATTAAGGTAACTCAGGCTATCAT :: NO
18. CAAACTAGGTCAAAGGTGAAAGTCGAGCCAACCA :: YES
19. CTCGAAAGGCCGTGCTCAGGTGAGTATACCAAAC :: NO
20. TAGGCTAGGTCATTCAGGGGCCAGTATAGAAAGC :: YES
21. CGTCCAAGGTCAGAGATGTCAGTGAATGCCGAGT :: YES
22. ACTAGCACGCCAAGTTTGGGTCACTCAAACAAAG :: NO
23. CAAACTAGGTCAGAGAGGTCAAAGTCCGTGCGTA :: YES
24. GCTCGGAAGACAAGGTCAGAGCTTTGTCCGTAGA :: NO
25. TCTTGTAGATCAAAGGTTGAGAAAGCCGAAGCCT :: NO
26. AGTCAAAGCTCATCTAGGTAACGTAAGATATGCT :: NO
27. AGAATGAGGTTACCCAAGATCAGGGAAACGCTTG :: YES
28. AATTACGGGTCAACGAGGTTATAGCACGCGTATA :: YES
29. ATACCAAGGTGATCGTGACGTCGTTGATACTAAC :: NO
30. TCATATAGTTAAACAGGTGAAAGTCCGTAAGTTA :: YES
31. TCTTGTAGATCAAAGATTAAGAAAGCCGAAGCCT :: NO
32. ATCGAAAGGTCGAGGTGAGTGTAGAGAAAGGGAA :: NO
33. TCTAGTAGTTGATTAGGGCAACCGAAACAGCGGA :: NO
34. CCAGACAGGAGAAAGGTAACTCAGTCTGGTACGC :: NO
35. ATCTCTAGGTAACCAAGTTCATTGAATGCCGAAC :: YES
36. ATCGAAAGGTCGAGGTGAATATAGAGAAAGGGAA :: NO
37. AGCTCTAGGTAAGACTCAGTTCAGTGAAGAACGC :: NO
38. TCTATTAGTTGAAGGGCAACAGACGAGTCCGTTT :: YES
39. GGAACGAGGGCAATGTTGATAGCATCTGTCGACG :: YES
40. ACTCGGAGGACCAAGGTCAGAGCTACGCCAGTGA :: NO
41. TCCTATAGGTAATACAGGTGAAAGTCGGCATCTA :: YES
42. TCTAGCAGTCCAGAGGGTCACTCAAGAGGTACGG :: NO
43. CACCCTAGGTCAGGGCCAGTATAGGAGGAACGTT :: NO
44. GTACCAAAGTGAATAGGTCGTTGATGAGTAGGCG :: NO
45. TCTCGGCGGACACGAAGGTCAGAGCTTTCCAGAG :: NO
